# assay_system: T1, FPR1 (UniProt P21462 1-350, limits assumed)
# T1 sequence (looked up): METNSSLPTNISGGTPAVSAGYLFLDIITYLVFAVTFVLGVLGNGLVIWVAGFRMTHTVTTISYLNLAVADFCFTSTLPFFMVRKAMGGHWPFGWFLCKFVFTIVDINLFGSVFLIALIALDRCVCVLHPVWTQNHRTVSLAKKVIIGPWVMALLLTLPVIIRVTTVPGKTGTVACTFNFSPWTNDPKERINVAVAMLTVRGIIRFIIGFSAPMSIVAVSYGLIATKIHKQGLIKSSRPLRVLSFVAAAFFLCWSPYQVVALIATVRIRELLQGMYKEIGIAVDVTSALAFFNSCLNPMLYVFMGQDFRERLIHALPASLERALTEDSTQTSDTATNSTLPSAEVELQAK
# assay_name: cell-based or functional assay
Listing of recorded EC50 for [Ca2+] by entry.

binder	measured_metric	value_measured
KMKYKVM (HELM PEPTIDE1{K.M.K.Y.K.V.[dM].[am]}$$$$V2.0; N-terminus assumed; SMILES CSCC[C@H](NC(=O)[C@@H](N)CCCCN)C(=O)N[C@@H](CCCCN)C(=O)N[C@@H](Cc1ccc(O)cc1)C(=O)N[C@@H](CCCCN)C(=O)N[C@H](C(=O)N[C@H](CCSC)C(N)=O)C(C)C) [peptide of SEQ ID NO 9]	EC50 for [Ca2+]	> 10 µM

**Q:** Tell me the measured EC50 for [Ca2+] of MKYKVM (HELM PEPTIDE1{[CCCC(=O)[*:2]].M.K.Y.K.V.[dM].[am]}$$$$V2.0; SMILES CCCC(=O)N[C@@H](CCSC)C(=O)N[C@@H](CCCCN)C(=O)N[C@@H](Cc1ccc(O)cc1)C(=O)N[C@@H](CCCCN)C(=O)N[C@H](C(=O)N[C@H](CCSC)C(N)=O)C(C)C) [peptide of SEQ ID NO 19] , please.
**A:** > 10 µM
